Here the recorded aptazyme ON/OFF ratio is given for each entry.
B1: Pistol ribozyme (parent)
chain: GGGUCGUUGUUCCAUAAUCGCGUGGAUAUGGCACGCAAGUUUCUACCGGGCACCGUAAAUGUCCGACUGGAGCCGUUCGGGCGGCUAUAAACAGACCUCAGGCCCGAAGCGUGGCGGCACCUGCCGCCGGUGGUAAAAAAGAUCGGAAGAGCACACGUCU

variants of: B1; test: aptazyme ON/OFF ratio, guanine; higher = stronger switching; co-transcriptional cleavage with and without guanine
# output: bare number, no unit

Example entries and their recorded answers appear below.
| Variant Notation | Quantitative Readout |
| --- | --- |
| G9U U10C U11A | 3.16 |
| U7A G9A U11C C13A | 1.07 |
| U7G G9C U11C C12A C13A | 1.42 |
| U7G U8A G9A U11A C12U C13G | 1.04 |
| U8C U10A C12A C13A | 1.26 |
| U7G U8A G9C U10G C12U | 1.03 |
| U7C U8A G9U U11A C12U | 1.06 |
| U8C U10C C12A C13A | 1.33 |

Exercise: Quick one: aptazyme ON/OFF ratio of U7C U8G G9A U10A U11C C12G C13G ?
Solution: 1.34

Exercise: Same lookup for U8C G9U U10A C12U C13G , please.
Solution: 1.2

Exercise: Further, for U7A U10A U11G C12A ?
Solution: 1.13

Exercise: What do we get for U7G U11A C12A C13A ?
Solution: 1.17

Exercise: And then U7A G9C U10A U11A , what is it?
Solution: 1.07

Exercise: Now this one: U8G G9U U10G U11C C12A C13G
Solution: 1.02

Exercise: And for U7A G9A C12U C13G ?
Solution: 1.17
